Tested on: morningglory
PROTOCOL: Test B preemergence/postemergence greenhouse plant response rating 0 to 10
Format: in vivo, Ipomoea hederacea
DETAILS: POSTEMERGENCE, Rate 10 g/ha; 0 to 10 scale
Item-by-item account of Plant response rating, Morningglory
QUANTITY MEASURED: Plant response rating, Morningglory

1. C#CCN1C(=O)COc2cc(F)c(-c3nn4c(c3Cl)CCCC4)cc21: 9
2. COCCN1C(=O)COc2cc(F)c(-c3nn4c(c3Cl)CCCC4)cc21: 9
3. C=CCOC(=O)COc1cc(-c2nn3c(c2Cl)CCCC3)c(F)cc1Cl: 6
4. CCCCN1C(=O)COc2cc(F)c(-c3nn4c(c3Cl)CCCC4)cc21: 10
5. CC(C)N1C(=O)COc2cc(F)c(-c3nn4c(c3Cl)CCCC4)cc21: 9
